- study_target: Ba/F3 cells overexpressing the p210^Bcr-Abl-T315I theramutein (Homo sapiens, UniProt P00519, T315I, cells depend on it)
- Construct: fused on or other part: P11274 (Breakpoint cluster region protein)
- assay_notes: phenoresponse-based cellular assay (cell count/viability), Ba/F3 T315I test cells
- Set-up: species or system murine
- run_conditions: read-out: T315I (IC50 activity category, growth inhibition by 50%); Ba/F3 T315I cell line
Measured GI50, listed per entry for reference.
result_type: GI50

INSERT INTO assay_data (molecule, result_type, observed_measurement) VALUES
  ('O=C(NNc1ncc(F)c(N2CCOCC2)n1)c1ccc(Nc2cccc(C(F)(F)F)c2)cn1', 'GI50', '< 1 µM'),
  ('Cc1ccc(/C=N/Nc2ncc(F)c(N3CCOCC3)n2)cc1', 'GI50', '> 10 µM'),
  ('O=C(Nc1cccc(C(F)(F)F)c1)c1cccc(/C=N/Nc2ncc(F)c(N3CCOCC3)n2)n1 [drawing 209]', 'GI50', '> 10 µM'),
  ('Cc1cccc(Cl)c1NC(=O)C/C=N/Nc1ncc(F)c(N2CCOCC2)n1', 'GI50', '> 10 µM'),
  ('Fc1cnc(N/N=C/c2ccc(Nc3cccc(C(F)(F)F)c3)cn2)nc1-c1cncc(-c2ccccc2)c1', 'GI50', '< 1 µM'),
  ('Fc1cnc(N/N=C/c2ccccc2)nc1N1CCOCC1', 'GI50', '> 10 µM'),
  ('Fc1cnc(N/N=C/c2ccc(Nc3cccc(C(F)(F)F)c3)cn2)nc1-c1cncc(C2CC2)c1', 'GI50', '< 10 µM');
